# target.system: PPARG/RXRA LBD heterodimer (Homo sapiens, UniProt P37231)
# Construct: His-TEV-Q203-Y477; Uniprot ID P37231-2; made in house; host or cells: E. coli
# test.description: PPARγ-NCOR1 recruitment assay (TR-FRET, biotinylated NCOR1 ID2 peptide)
# Format: biochemical
# measurement.context: 80 nM Rosiglitazone, 3 hours, read-out: PPARG-NCOR recruitment assay EC50
# Sequence (O75376 2251-2273 partner, one chain of several): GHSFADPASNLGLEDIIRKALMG
pEC50: −log10 of the molar value.
Listing of entries alongside the reported pEC50.

>  <smiles.input>
N#Cc1ccc(Br)c(-c2cc(=O)c3cc(F)c(F)cc3[nH]2)c1

>  <target.system>
PPARG/RXRA LBD heterodimer (Homo sapiens, UniProt P37231)

>  <pEC50>
6.00 to 7.00

$$$$
>  <smiles.input>
N#Cc1ccc(Cl)c(-c2cc(=O)c3c(F)c(N4CCS(=O)(=O)CC4)c(F)cc3[nH]2)c1

>  <target.system>
PPARG/RXRA LBD heterodimer (Homo sapiens, UniProt P37231)

>  <pEC50>
5.00 to 6.00

$$$$
>  <smiles.input>
Cc1c(F)cc(F)c2c(=O)cc(-c3cc(C#N)ccc3Cl)[nH]c12

>  <target.system>
PPARG/RXRA LBD heterodimer (Homo sapiens, UniProt P37231)

>  <pEC50>
< 5.00

$$$$

Lab note: measured pEC50 of Cc1ncc(-c2c(F)cc3[nH]c(-c4cc(C#N)ccc4Cl)cc(=O)c3c2F)cn1 was 6.00 to 7.00

---

The entries below are paired with their reported EC50.
# target.system: PPARG/RXRA LBD heterodimer (Homo sapiens)
# Construct: His-TEV-Q203-Y477; Uniprot ID P37231-2; made in house; host or cells: E. coli
# test.description: PPARγ-NCOR1 recruitment assay (TR-FRET, biotinylated NCOR1 ID2 peptide)
# Assay type: biochemical
# measurement.context: 80 nM Rosiglitazone, 3 hours, read-out: PPARG-NCOR recruitment assay EC50

Guide cases for EC50, answers given:
>  <compound>
N#Cc1ccc(Cl)c(-c2cc(=O)c3c(F)c(-c4cccc(C(=O)O)c4)c(F)cc3[nH]2)c1

>  <target.system>
PPARG/RXRA LBD heterodimer (Homo sapiens)

>  <recorded.measurement>
100 to 1000 nM

$$$$
>  <compound>
CN(C)C(=O)c1cc(-c2c(F)cc3[nH]c(-c4cc(C#N)ccc4Cl)cc(=O)c3c2F)ccc1F

>  <target.system>
PPARG/RXRA LBD heterodimer (Homo sapiens)

>  <recorded.measurement>
100 to 1000 nM

$$$$
>  <compound>
CN1CCN(c2c(F)cc3[nH]c(-c4cc(C#N)ccc4Cl)cc(=O)c3c2F)CC1

>  <target.system>
PPARG/RXRA LBD heterodimer (Homo sapiens)

>  <recorded.measurement>
1000 to 10000 nM

$$$$
>  <compound>
COc1c(F)cc2[nH]c(-c3cc(C#N)ccc3Cl)cc(=O)c2c1F

>  <target.system>
PPARG/RXRA LBD heterodimer (Homo sapiens)

>  <recorded.measurement>
100 to 1000 nM

$$$$
>  <compound>
N#Cc1ccc(Cl)c(-c2cc(=O)c3c(F)c(C(O)CO)c(F)cc3[nH]2)c1 (centres unmarked)

>  <target.system>
PPARG/RXRA LBD heterodimer (Homo sapiens)

>  <recorded.measurement>
1000 to 10000 nM

$$$$

The compound COC1CN(c2c(F)cc3[nH]c(-c4cc(C#N)ccc4Cl)cc(=O)c3c2F)C1 , tested on PPARG/RXRA LBD heterodimer (Homo sapiens), showed EC50 of 1000 to 10000 nM

Case N#Cc1ccc(Cl)c(-c2cc(=O)c3c(F)c(-c4ccc5c(c4)C(=O)NC5)c(F)cc3[nH]2)c1 , PPARG/RXRA LBD heterodimer (Homo sapiens), EC50 recorded as 10 to 100 nM

Field EC50 (system: PPARG/RXRA LBD heterodimer (Homo sapiens)) for entry N#Cc1ccc(Cl)c(-c2cc(=O)c3c(F)c(-c4cn[nH]c4)c(F)cc3[nH]2)c1 = 100 to 1000 nM

---

# target.system: PPARG/RXRA LBD heterodimer (Homo sapiens)
# Construct: His-TEV-Q203-Y477; Uniprot ID P37231-2; made in house; host or cells: E. coli
# test.description: PPARγ-MED1 blockade assay (TR-FRET, biotinylated MED1 LxxLL peptide)
# Type: biochemical
# measurement.context: WT PPARG LBD/WT RXRA LBD, 80 nM Rosiglitazone, 3 hours
pEC50: −log10 of the molar value.
recorded.metric: pEC50

// worked examples, pEC50 included
>  <smiles.input>
CC(C)(CO)n1cc(-c2c(F)cc3[nH]c(-c4cc(C#N)ccc4Cl)cc(=O)c3c2F)cn1

>  <pEC50>
6.00 to 7.00

$$$$
>  <smiles.input>
N#Cc1ccc(Cl)c(-c2cc(=O)c3c(F)c(-c4c[nH]c(C(F)(F)F)n4)c(F)cc3[nH]2)c1

>  <pEC50>
7.00 to 8.00

$$$$
>  <smiles.input>
N#Cc1ccc(Cl)c(-c2cc(=O)c3c(F)c(-c4ccc5c(c4)C(=O)NC5)c(F)cc3[nH]2)c1

>  <pEC50>
7.00 to 8.00

$$$$
>  <smiles.input>
N#Cc1ccc(Cl)c(-c2cc(=O)c3cc(Cl)c(Cl)cc3[nH]2)c1

>  <pEC50>
6.00 to 7.00

$$$$
>  <smiles.input>
O=c1cc(-c2cc([N+](=O)[O-])ccc2Cl)[nH]c2ccccc12

>  <pEC50>
> 8.00

$$$$
>  <smiles.input>
CN(C)C(=O)[C@H]1CCCN(c2c(F)cc3[nH]c(-c4cc(C#N)ccc4Cl)cc(=O)c3c2F)C1

>  <pEC50>
5.00 to 6.00

$$$$
>  <smiles.input>
CN(C)C(=O)[C@@H]1CCN(c2c(F)cc3[nH]c(-c4cc(C#N)ccc4Cl)cc(=O)c3c2F)C1

>  <pEC50>
5.00 to 6.00

$$$$
>  <smiles.input>
N#Cc1ccc(Cl)c(-c2cc(=O)c3ccccc3[nH]2)c1

>  <pEC50>
5.00 to 6.00

$$$$

Entry N#Cc1ccc(-c2c(F)cc3[nH]c(-c4cc(C#N)ccc4Cl)cc(=O)c3c2F)cc1 — recorded pEC50 = 6.00 to 7.00

Record summary for CN(C)C(=O)c1cc(-c2c(F)cc3[nH]c(-c4cc(C#N)ccc4Cl)cc(=O)c3c2F)c(F)cc1F : reported pEC50 = 6.00 to 7.00

Entry CN(C)C(=O)c1cc(-c2c(F)cc3[nH]c(-c4cc(C#N)ccc4Cl)cc(=O)c3c2F)ccc1F , pEC50 reported as 6.00 to 7.00

Given item N#Cc1ccc(Cl)c(-c2cc(=O)c3ccc(Cl)cc3[nH]2)c1 , the value recorded as its pEC50 is 6.00 to 7.00

Sure, the documented pEC50 for N#Cc1ccc(Cl)c(-c2cc(=O)c3c(F)c(-c4cc[nH]c(=O)c4)c(F)cc3[nH]2)c1 is 6.00 to 7.00

N#Cc1ccc(Cl)c(-c2cc(=O)c3c(F)c(C4CCNCC4)c(F)cc3[nH]2)c1 yielded pEC50 of 5.00 to 6.00

What the record says about Cc1nc(-c2c(F)cc3[nH]c(-c4cc(C#N)ccc4Cl)cc(=O)c3c2F)c[nH]1 : pEC50 is 6.00 to 7.00

---

Listing of recorded EC50 by entry.
# target.system: PPARG/RXRA LBD heterodimer (Homo sapiens, UniProt P37231)
# Construct: His-TEV-Q203-Y477; Uniprot ID P37231-2; made in house; host or cells: E. coli
# Sequence (P37231 203-477 isoform P37231-2): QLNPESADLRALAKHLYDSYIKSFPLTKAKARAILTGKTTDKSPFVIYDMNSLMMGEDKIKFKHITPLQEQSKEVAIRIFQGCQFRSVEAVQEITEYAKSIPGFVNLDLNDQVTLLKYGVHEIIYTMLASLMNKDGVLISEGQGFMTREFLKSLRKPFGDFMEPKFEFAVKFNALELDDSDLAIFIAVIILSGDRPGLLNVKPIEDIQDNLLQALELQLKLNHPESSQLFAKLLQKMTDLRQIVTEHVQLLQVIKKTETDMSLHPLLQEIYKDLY
# Sequence (P19793 228-462 partner limits assumed): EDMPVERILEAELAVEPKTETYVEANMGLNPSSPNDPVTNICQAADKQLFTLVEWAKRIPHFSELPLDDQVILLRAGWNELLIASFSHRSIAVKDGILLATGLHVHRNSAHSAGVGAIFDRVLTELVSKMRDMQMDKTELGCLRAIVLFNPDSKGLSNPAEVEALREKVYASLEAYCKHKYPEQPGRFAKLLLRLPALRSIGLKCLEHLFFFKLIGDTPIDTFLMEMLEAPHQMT
# test.description: PPARγ-MED1 blockade assay (TR-FRET, biotinylated MED1 LxxLL peptide)
# Format: biochemical
# measurement.context: WT PPARG LBD/WT RXRA LBD, 80 nM Rosiglitazone, 3 hours

// solved cases for EC50 follow
>  <smiles.input>
Cc1cc2[nH]c(-c3cc(C#N)ccc3Cl)cc(=O)c2cc1C#N

>  <recorded.metric>
EC50

>  <recorded.measurement>
1 to 10 µM

$$$$
>  <smiles.input>
Cc1cc(-c2c(F)cc3[nH]c(-c4cc(C#N)ccc4Cl)cc(=O)c3c2F)cc(C)n1

>  <recorded.metric>
EC50

>  <recorded.measurement>
0.1 to 1 µM

$$$$
>  <smiles.input>
N#Cc1ccc(Cl)c(-c2cc(=O)c3c(F)c(-c4ccncc4)c(F)cc3[nH]2)c1

>  <recorded.metric>
EC50

>  <recorded.measurement>
0.1 to 1 µM

$$$$

Then there is this compound:
CNC(=O)c1ccc(-c2c(F)cc3[nH]c(-c4cc(C#N)ccc4Cl)cc(=O)c3c2F)cc1 has a reported EC50 of 0.1 to 1 µM
